experiment: Clinical trial PK of Compound 1 solution, oral and IV dosing; conditions: human, in vivo; humans, from AUC0-∞ oral vs IV, 2 mg/kg solution
ATTRIBUTE_MEASURED: bioavailability

CN(C)Cc1c(C(=O)NCCOc2ccc(C(=O)NO)cc2)oc2ccccc12: ~27%

====

assay: Clinical trial PK of Compound 1 solution, oral and IV dosing; conditions: human, in vivo, 2 mg/kg; humans, immediate release capsules or an oral solution
ATTRIBUTE_MEASURED: bioavailability

CN(C)Cc1c(C(=O)NCCOc2ccc(C(=O)NO)cc2)oc2ccccc12: ~27%
